target: CYP2C19 (Homo sapiens, UniProt P33261); construct: isoform-specific substrates incubated with human liver microsomes; tissue Eurofins ITEMG232 (protocol number); host or cells: human liver microsomes; experiment: CYP inhibition in human liver microsomes (Eurofins ITEMG232); type: in vitro ADME; conditions: human, probe omeprazole, substrate omeprazole, read-out: CYP2C19 Inh %
Sequence (P33261 whole entry, canonical isoform): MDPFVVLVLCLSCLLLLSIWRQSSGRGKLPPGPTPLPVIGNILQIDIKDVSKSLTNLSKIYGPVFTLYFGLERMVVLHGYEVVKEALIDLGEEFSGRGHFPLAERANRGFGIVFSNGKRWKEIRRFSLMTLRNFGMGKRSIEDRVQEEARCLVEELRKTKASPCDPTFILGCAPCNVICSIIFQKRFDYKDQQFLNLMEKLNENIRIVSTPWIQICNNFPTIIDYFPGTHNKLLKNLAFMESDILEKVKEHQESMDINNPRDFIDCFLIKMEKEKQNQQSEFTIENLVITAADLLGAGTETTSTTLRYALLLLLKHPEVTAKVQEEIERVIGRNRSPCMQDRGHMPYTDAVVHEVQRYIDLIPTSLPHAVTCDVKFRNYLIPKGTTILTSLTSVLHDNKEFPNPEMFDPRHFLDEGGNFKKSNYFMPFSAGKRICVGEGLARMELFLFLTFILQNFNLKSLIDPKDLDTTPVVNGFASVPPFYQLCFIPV
Quick rule: inhibition at 10 µM of at least 70% means fulfilled, below that means not fulfilled.

compound | category_label
CC(C)Cc1ccc(S(=O)(=O)Nc2ncccn2)c(-c2ccc(Cn3ccnc3)c(F)c2)c1 [Example 30] | fulfilled
CCc1nccn1Cc1ccc(-c2cc(CC(C)C)sc2S(=O)(=O)Nc2ncccn2)cc1F [Example 45] | not fulfilled
CC(C)Cc1ccc(S(=O)(=O)Nc2ncccn2)c(-c2ccc(Cn3ccnc3C(C)C)c(F)c2)c1 [Example 27] | not fulfilled
Cc1nccn1Cc1ccc(-c2cc(CC(C)C)sc2S(=O)(=O)Nc2ncccn2)cc1F [Example 44] | not fulfilled
COc1ccc(NS(=O)(=O)c2ccc(CC(C)C)cc2-c2ccc(Cn3ccnc3C(C)(C)C)cc2)nn1 [Example 14] | not fulfilled
Cc1cnc(NS(=O)(=O)c2ccc(CC(C)C)cc2-c2ccc(Cn3ccnc3C(C)(C)C)c(F)c2)nc1 [Example 26] | not fulfilled
Cc1nc(NS(=O)(=O)c2ccc(CC(C)C)cc2-c2ccc(Cn3ccnc3C(C)(C)C)c(F)c2)oc1C [Example 24] | not fulfilled
COc1ncnc(OC)c1NS(=O)(=O)c1ccc(CC(C)C)cc1-c1ccc(Cn2ccnc2C(C)(C)C)cc1 [Example 19] | fulfilled
COc1ncncc1NS(=O)(=O)c1ccc(CC(C)C)cc1-c1ccc(Cn2ccnc2C(C)(C)C)cc1 [Example 18] | fulfilled
